target: human P2X3 receptor (Homo sapiens (Human)); experiment: Evaluation of human P2X3 receptor inhibitory activity (Fluo-3 calcium fluorescence, FDSS 3000, ATP stimulation); type: cell-based; details: C6BU-1 cells stably expressing human P2X3 receptor, Fluo-3 fluorescence, FDSS 3000
Outcome Measure: pIC50
One number for each entry, as −log10 of the molar value.

Observe how each entry below is paired with its result.
{"columns": ["Smiles Repr", "pIC50"],
 "data": [
  ["CCCOc1ccc(/N=c2\\[nH]c(=O)n(C[C@@H](CC)C(=O)OC)c(=O)n2Cc2ccc(Cl)cc2)cc1", 8.22],
  ["Cc1cc(Oc2ccc(/N=c3\\[nH]c(=O)n(CCCO)c(=O)n3Cc3ccc(Cl)cc3)cc2)no1", 8.10],
  ["CC(C)Oc1ccc(/N=c2\\[nH]c(=O)n(CC3(C(=O)O)CC3)c(=O)n2Cc2ccc(Cl)cc2)cc1", 7.03],
  ["CCc1nc2ccc(/N=c3\\[nH]c(=O)n(CC(=O)NC)c(=O)n3Cc3ccc(Cl)cc3)cc2s1", 8.22],
  ["C[C@@H](C(=O)O)[C@H](C)n1c(=O)[nH]/c(=N\\c2ccc3c(c2)CCCC3=O)n(Cc2ccc(Cl)cc2)c1=O", 6.02]
]}

Dear colleague, could you send me pIC50 for each of the items below? Thanks.
1. CCc1oc2ccc(/N=c3\[nH]c(=O)n(CC4COC(C)(C)OC4)c(=O)n3Cc3ccc(Cl)cc3)cc2c1C
2. NC(=O)Cn1c(=O)[nH]/c(=N\c2ccc(Oc3ccc(O)nc3)cc2)n(Cc2ccc(Cl)cc2)c1=O

OUTPUT:
1. 8.15
2. 7.80

====

molecular target: human P2X3 receptor (Homo sapiens (Human), UniProt P56373); assay: Evaluation of human P2X3 receptor inhibitory activity (Fluo-3 calcium fluorescence, FDSS 3000, ATP stimulation); format: cell-based; conditions: human P2X3 receptor, Test Example 1
Sequence (P56373 whole entry): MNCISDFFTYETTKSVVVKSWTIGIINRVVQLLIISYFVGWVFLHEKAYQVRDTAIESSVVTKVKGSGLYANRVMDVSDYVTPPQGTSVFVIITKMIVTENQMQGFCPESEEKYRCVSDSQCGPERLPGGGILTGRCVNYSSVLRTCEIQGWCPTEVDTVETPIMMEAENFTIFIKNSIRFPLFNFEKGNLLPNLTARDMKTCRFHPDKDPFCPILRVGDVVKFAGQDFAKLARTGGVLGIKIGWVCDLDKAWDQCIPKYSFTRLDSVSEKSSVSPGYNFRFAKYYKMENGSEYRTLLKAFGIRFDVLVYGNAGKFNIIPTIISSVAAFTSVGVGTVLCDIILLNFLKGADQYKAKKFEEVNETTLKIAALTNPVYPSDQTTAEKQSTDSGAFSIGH
pIC50: −log10 of the molar value.
Cut-off 8 on pIC50, inclusive. At or above means 1; below means -1.

{"columns": ["Compound", "Answer Label"],
 "data": [
  ["CC(=O)N(C)CCCn1c(=O)[nH]/c(=N\\c2ccc(OC(C)C)c(F)c2)n(Cc2ccc(Cl)cc2)c1=O [Compound I-2317]", 1],
  ["O=c1[nH]/c(=N\\c2ccc(Oc3ccon3)cc2)n(Cc2ccc(Cl)cc2)c(=O)n1CC(CO)CO [Compound I-2291]", 1],
  ["COC(=O)[C@@H](C)Cn1c(=O)[nH]/c(=N\\c2ccc(OCC(F)F)cc2)n(Cc2ccc(Cl)cc2)c1=O [Compound I-0846]", -1],
  ["CC[C@@H](C)Oc1ccc(/N=c2\\[nH]c(=O)n(C[C@H](C)C(=O)OC)c(=O)n2Cc2ccc(C)cc2)cc1 [Compound I-0824]", -1],
  ["NC(=O)CCn1c(=O)[nH]/c(=N\\c2ccc(Oc3ccon3)cc2)n(Cc2ccc(Cl)cc2)c1=O [Compound I-2443]", -1]
]}

Please examine the following record next.
INPUT: Is it the case that Cc1ccc(Cn2c(=O)n(C[C@H](C)C(=O)O)c(=O)[nH]/c2=N\c2ccc(C3CC3)c(Cl)c2)cc1 [Compound I-1489] has pIC50 reaching or exceeding 8?
OUTPUT: -1

====

target: human P2X3 receptor (Homo sapiens (Human), UniProt P56373); assay: Evaluation of human P2X3 receptor inhibitory activity (Fluo-3 calcium fluorescence, FDSS 3000, ATP stimulation); type: cell-based; details: C6BU-1 cells stably expressing human P2X3 receptor;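 also: stimulus was 50 nM ATP with fluorescence followed for 3 min, and the response per well was peak post-ATP fluorescence divided by the reading at measurement start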
Provide the recorded log10 of IC50 for the entries that follow.
A value of 2 here means IC50 of 100 in nM, since values are log10.

{"columns": ["Molecule", "Experimental Value"],
 "data": [
  ["COC(=O)C(C)(C)Cn1c(=O)[nH]/c(=N\\c2ccc(OC(C)C)c(OC)c2)n(Cc2ccc(C)cc2)c1=O [Compound I-1272]", 0.85],
  ["CC(C)Oc1ccc(/N=c2\\[nH]c(=O)n(CCC(=O)Nc3ccc(OC(C)C)c(Cl)c3)c(=O)n2CC2CCC3(CC2)CC3)cc1Cl [Compound I-1450]", 2.65],
  ["COc1cc(/N=c2\\[nH]c(=O)n(C[C@H](O)CO)c(=O)n2Cc2ccc(Cl)cc2)ccc1OC(C)C [Compound I-2004]", 1.11],
  ["O=C(O)CCn1c(=O)[nH]/c(=N\\c2ccc(Oc3ccnc(O)c3)cc2)n(Cc2ccc(Cl)cc2)c1=O [Compound I-1441]", 0.95],
  ["CCCc1nc2ccc(/N=c3\\[nH]c(=O)n(C[C@H](C)C(=O)OC)c(=O)n3Cc3ccc(Cl)cc3)cc2o1 [Compound I-1327]", 1.86]
]}

Dear colleague, could you send me log10 of IC50 for each of the items below? Thanks.
1. Cc1ccc(Cn2c(=O)n(CCC(=O)O)c(=O)[nH]/c2=N\c2ccc(OC(C)C)cc2F)cc1 [Compound I-2049]
2. Cc1cc(/N=c2\[nH]c(=O)n(CCC(=O)O)c(=O)n2Cc2ccc(Cl)cc2)ccc1OC1CCC1 [Compound I-1407]
3. COC(=O)CCCCn1c(=O)[nH]/c(=N\c2ccc(OC(C)C)c(Cl)c2)n(Cc2ccc(Cl)cc2)c1=O [Compound I-2182]
4. Cc1ccc(Cn2c(=O)n(C[C@H](C)C(=O)O)c(=O)[nH]/c2=N\c2ccc(OC(C)C)c(C)c2)cc1 [Compound I-0680]
5. C[C@@H](Oc1ccc(/N=c2\[nH]c(=O)n(CCC(=O)NCCO)c(=O)n2Cc2ccc(Cl)cc2)cc1)C(F)(F)F [Compound I-1998]
6. COC(=O)NCCCn1c(=O)[nH]/c(=N\c2ccc(OC(C)C)c(F)c2)n(Cc2ccc(Cl)cc2)c1=O [Compound I-0608]

OUTPUT:
1.93
1.56
0.48
1.41
1.53
0.78

Dear colleague, could you send me log10 of IC50 for each of the items below? Thanks.
1. CCOc1ccc(/N=c2\[nH]c(=O)n(C[C@@H](C)C(=O)OC)c(=O)n2Cc2ccc(Cl)cc2)cc1Cl [Compound I-0590]
2. CNC(=O)Cn1c(=O)[nH]/c(=N\c2ccc(Oc3ccc(C)nc3)cc2)n(Cc2ccc(Cl)cc2)c1=O [Compound I-1945]
3. Cc1ccc(Cn2c(=O)n(CCC(=O)O)c(=O)[nH]/c2=N\c2ccc(Oc3cccnc3)cc2)cc1 [Compound I-1227]
4. CC(C)COc1ccc(/N=c2\[nH]c(=O)n(C[C@H](C)C(=O)O)c(=O)n2Cc2ccc(Cl)cc2)cc1 [Compound I-0750]
5. Cc1nc2ccc(/N=c3\[nH]c(=O)n(C[C@H](O)CO)c(=O)n3CC3CCC(C)CC3)cc2s1 (stereo partly drawn) [Compound I-2097]

OUTPUT:
1. 0.60
2. 0.90
3. 1.48
4. 1.34
5. 0.70
